pIC50: −log10 of the molar value.
Compiled notes: published pIC50 values involving Cyclin-dependent kinase 2 (Homo sapiens, UniProt P24941).

                                chem_smiles  experimental_readout  assay_value
0  CC(C)(C)n1ncc2c(Nc3ccc(S(=O)(=O)NCCO)cc3)nc(Nc3ccc(S(=O)(=O)NCCO)cc3)nc21                 pIC50         6.31
1  CCCCCCc1ccc(S(=O)(=O)N2CCC(Nc3ncc4cc(C#N)c(=O)n(C5CCCC5)c4n3)CC2)cc1                 pIC50         6.68
2  COc1ccc(C(=O)Nc2ccc(C(=O)Nc3ccc(-n4cncn4)cc3)o2)cc1                 pIC50       ≤ 4.40
3  O=C(Nc1ccc(-n2cncn2)cc1)c1ccc(C(=O)Nc2nccs2)s1                 pIC50       ≤ 4.40
4  Cc1cc(CN2CCOCC2)ccc1NC(=O)c1ccc(C(=O)Nc2ccc(-n3cncn3)c(F)c2)s1                 pIC50       ≥ 6.00
5  Cc1ccnc(NC(=O)c2ccc(C(=O)Nc3ccc(-n4cncn4)cc3)s2)c1                 pIC50       ≤ 4.40
6  CC(C)N1CCOc2c(F)cc(-c3nc(NC4CCN(S(C)(=O)=O)CC4)ncc3F)cc21                 pIC50       > 9.00
7  Cc1nn(C2CCNCC2)cc1Nc1ncc(F)c(-c2cc(F)c3c(c2)N(C(C)C)CCO3)n1                 pIC50         7.35
8  COc1ccc(NC(=O)c2ccc(C(=O)Nc3ccc(-c4nc[nH]n4)c(F)c3)s2)c(C)c1                 pIC50       ≥ 6.00
9  O=C(Nc1ccc(-n2cncn2)cc1)c1ccc(NC(=O)C2CCCCC2)o1                 pIC50       ≤ 4.40

Quick check: pIC50 on Cyclin-dependent kinase 2 (Homo sapiens, UniProt P24941), item O=C(Nc1ccc(-n2cncn2)cc1)c1ccc(C(=O)Nc2cccc(-c3cnco3)c2)s1 ? ≤ 4.40

Quick check: pIC50 on Cyclin-dependent kinase 2 (Homo sapiens, UniProt P24941), item CN1CCC(n2cc(Nc3ncc4cc(C#N)c(=O)n(C5CCCC5)c4n3)cn2)CC1 ? 6.42

Quick check: pIC50 on Cyclin-dependent kinase 2 (Homo sapiens, UniProt P24941), item COc1ccc(NC(=O)c2ccc(C(=O)Nc3ccc(-c4nnc[nH]4)cc3)s2)c(C)c1 ? ≥ 6.00

Quick check: pIC50 on Cyclin-dependent kinase 2 (Homo sapiens, UniProt P24941), item CN1CCC(NC(=O)c2ccc(C(=O)Nc3ccc(-n4cncn4)c(F)c3)o2)CC1 ? ≤ 4.40

Quick check: pIC50 on Cyclin-dependent kinase 2 (Homo sapiens, UniProt P24941), item CC(C)N1CCOc2c(F)cc(-c3nc(Nc4ccc5c(n4)CCNC5)ncc3F)cc21 ? 7.62

Quick check: pIC50 on Cyclin-dependent kinase 2 (Homo sapiens, UniProt P24941), item Cc1ccsc1CNC(=O)c1ccc(C(=O)Nc2ccc(-n3cncn3)cc2)s1 ? 4.40 to 6.00

Quick check: pIC50 on Cyclin-dependent kinase 2 (Homo sapiens, UniProt P24941), item COc1ccc(NC(=O)c2ccc(C(=O)Nc3ccc(-n4cncn4)cc3)o2)cc1 ? ≥ 6.00

Quick check: pIC50 on Cyclin-dependent kinase 2 (Homo sapiens, UniProt P24941), item CCOC(=O)c1cnc2c(c1)C(=CNc1ccc3cn[nH]c3c1)C(=O)N2 ? 7.00 to 8.00

Quick check: pIC50 on Cyclin-dependent kinase 2 (Homo sapiens, UniProt P24941), item O=C(Nc1ccncc1)c1ccc(C(=O)Nc2ccc(-n3cncn3)cc2)o1 ? 4.40 to 6.00

Quick check: pIC50 on Cyclin-dependent kinase 2 (Homo sapiens, UniProt P24941), item Cn1ccc(S(=O)(=O)N2CCC(Nc3ncc4cc(C(F)F)c(=O)n([C@H]5C[C@@H]6CC[C@H]5C6)c4n3)CC2)n1 ? 7.74

Quick check: pIC50 on Cyclin-dependent kinase 2 (Homo sapiens, UniProt P24941), item COc1cccc(-c2cnc(Nc3ccc(N4CCN(C)CC4)nc3)o2)c1 ? > 6.00

Quick check: pIC50 on Cyclin-dependent kinase 2 (Homo sapiens, UniProt P24941), item CCCOc1cccc(-c2cnc(Nc3ccc(N4CCN(C)CC4)cc3)o2)c1 ? > 6.00

Quick check: pIC50 on Cyclin-dependent kinase 2 (Homo sapiens, UniProt P24941), item CS(=O)(=O)N1CCC(Nc2ncc3cc(C(F)F)c(=O)n([C@H]4C[C@H]5C[C@H]5C4)c3n2)CC1 ? 8.30

Quick check: pIC50 on Cyclin-dependent kinase 2 (Homo sapiens, UniProt P24941), item N#Cc1cc2cnc(Nc3ccc4c(c3)CCN(CCN)C4)nc2n(C2CCCC2)c1=O ? 6.37
